# tested_system: hAhR (Homo sapiens)
# Construct: Stably integrated DRE-luciferase cell lines were generated by transducing the both cell lines with Cignal XRE luciferase reporter (Qiagen) lentiviral particles; endogenous in cells
# Sequence (P35869 11-848): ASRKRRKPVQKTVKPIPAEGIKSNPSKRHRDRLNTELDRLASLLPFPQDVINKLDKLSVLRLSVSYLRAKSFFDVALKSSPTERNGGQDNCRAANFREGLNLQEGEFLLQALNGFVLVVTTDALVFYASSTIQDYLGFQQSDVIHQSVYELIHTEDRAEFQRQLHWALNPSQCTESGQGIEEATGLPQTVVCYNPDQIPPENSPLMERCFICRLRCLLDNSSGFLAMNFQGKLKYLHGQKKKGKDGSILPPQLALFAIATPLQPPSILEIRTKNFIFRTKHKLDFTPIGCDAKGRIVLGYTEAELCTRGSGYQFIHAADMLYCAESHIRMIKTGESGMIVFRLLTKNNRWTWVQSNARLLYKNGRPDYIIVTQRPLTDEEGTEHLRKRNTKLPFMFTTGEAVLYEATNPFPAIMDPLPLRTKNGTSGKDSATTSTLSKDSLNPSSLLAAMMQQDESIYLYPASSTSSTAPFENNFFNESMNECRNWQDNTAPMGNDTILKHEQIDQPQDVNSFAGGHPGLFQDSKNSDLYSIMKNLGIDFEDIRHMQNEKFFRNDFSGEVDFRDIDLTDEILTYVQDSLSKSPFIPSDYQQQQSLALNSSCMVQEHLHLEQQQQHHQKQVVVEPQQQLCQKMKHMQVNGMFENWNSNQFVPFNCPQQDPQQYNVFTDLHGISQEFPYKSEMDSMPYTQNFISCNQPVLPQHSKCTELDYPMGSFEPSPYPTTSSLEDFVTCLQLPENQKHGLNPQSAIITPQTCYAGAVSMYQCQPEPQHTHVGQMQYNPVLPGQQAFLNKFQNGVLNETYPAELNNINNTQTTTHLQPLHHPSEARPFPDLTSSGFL
# assay_details: AhR DRE-luciferase reporter transcriptional assay, antagonist mode (TCDD-induced)
# experimental_context: HEPG2 DRE-Luc cells, 3 nM TCDD, 24 hour incubation, relative IC50
# Protocol: HEPG2 and HEPA1C1C7 cells were maintained in MEM and αMEM without nucleosides supplemented with 10% heat inactivated FBS respectively. […] Firefly luciferase activity was measured immediately following the addition of 50 μL Luciferase Assay Reagent (Promega). The percent maximal activity for each point was determined using the following equasion: (RLUsample-RLUvehicle−TCDD)/(RLUvehicle+TCDD RLUvehicle−TCDD)*100. […]
IC50 reference
measure: IC50

# entry_smiles, reported_measurement
measured = [
    ("Cc1cc(-c2ccc3cccc(Cl)c3n2)ccc1NC(=O)c1ccnn1C", "< 200 nM"),
    ("Cc1cc(-c2ccc3ccn(C)c3c2)ccc1NC(=O)c1ccnn1C", "500 to 1000 nM"),
    ("Cc1cc(-c2ccc3cc(N4CCOCC4)ccc3n2)ccc1NC(=O)c1ccnn1C", "200 to 500 nM"),
    ("Cc1cc(-c2ncc3cc(C(F)(F)F)ccc3n2)ccc1NC(=O)c1c(C)cnn1C", "< 200 nM"),
    ("Cc1cc(-c2ccc3cc(C#N)ccc3n2)ccc1NC(=O)c1ccnn1C", "< 200 nM"),
    ("Cc1cc(-c2ncc3cc(C(F)(F)F)ccc3n2)ccc1N(C)C(=O)c1ccnn1C", "< 200 nM"),
    ("Cc1cc(-c2ccc3cc(F)ccc3n2)ccc1NC(=O)c1ncco1", "500 to 1000 nM"),
    ("Cc1cnccc1C(=O)N(C)c1ccc(-c2ncc3cc(C(F)(F)F)ccc3n2)cc1C", "< 200 nM"),
    ("CCN(C(=O)c1ccnn1C)c1ccc(-c2ccc3cc(C(F)(F)F)ccc3n2)cc1C", "< 200 nM"),
    ("Cc1cc(-c2ncc3cc(C(F)(F)F)ccc3n2)ccc1N(C)C(=O)c1nnn[nH]1", "1000 to 10000 nM"),
    ("Cc1cc(N(C)C(=O)c2ccnn2C)c(F)cc1-c1ncc2nc(C(F)(F)F)cc(C)c2n1", "200 to 500 nM"),
    ("Cc1cc(-c2ncc3cc(C(F)(F)F)ccc3n2)ccc1NC(=O)c1nn(C)cc1C", "< 200 nM"),
    ("Cc1cc(-c2ccc3cccc(C)c3n2)ccc1NC(=O)OC(C)(C)C", "1000 to 10000 nM"),
    ("Cc1cc(-c2ccc3cc(F)ccc3n2)ccc1NC(=O)c1cocn1", "500 to 1000 nM"),
    ("Cc1cc(-c2ncc3nc(C(F)(F)F)ccc3n2)ccc1NC(=O)c1ccnn1C", "< 200 nM"),
    ("Cc1cc(-c2ccc3cc(F)ccc3n2)ccc1NC(=O)c1cccnc1", "500 to 1000 nM"),
    ("Cc1cc(-c2ccc3cc(F)cc(Br)c3n2)ccc1NC(=O)c1ccnn1C", "< 200 nM"),
    ("CC(=O)Nc1ccc(-c2ccc3cc(F)ccc3n2)cc1C", "200 to 500 nM"),
    ("Cc1c(-c2ncc3nc(C(F)(F)F)cc(C)c3n2)ccc(N(C)C(=O)c2ccnn2C)c1F", "< 200 nM"),
    ("Cc1cc(-c2nc3ccc(F)cc3s2)ccc1NC(=O)c1ccnn1C", "1000 to 10000 nM"),
    ("Cc1cc(-c2ccc3cc(C(F)(F)F)ccc3n2)ccc1N(C)C(=O)c1ccnn1CCO", "< 200 nM"),
    ("Cc1cc(-c2ncc3nc(C(F)(F)F)cc(C)c3n2)ccc1N(C)C(=O)c1ccnn1CCO", "< 200 nM"),
    ("Cc1cc(-c2ncc3nc(C(F)(F)F)cc(C)c3n2)ccc1N(C)C(=O)c1ccnc(C(N)=O)c1", "< 200 nM"),
    ("Cc1cc(-c2ccc3cccc(F)c3n2)ccc1NC(=O)c1ccnn1C", "< 200 nM"),
    ("Cc1cc(NC(=O)c2ccnn2C)ncc1-c1ccc2cc(F)ccc2n1", "1000 to 10000 nM"),
    ("Cc1cc(-c2ccc3cc(Br)ccc3n2)ccc1NC(=O)c1ccnn1C", "200 to 500 nM"),
    ("COc1cc(C(=O)N(C)c2ccc(-c3ncc4cc(C(F)(F)F)ccc4n3)cc2C)ccn1", "< 200 nM"),
    ("Cc1cc(-c2ccc3cc(F)ccc3n2)c(F)cc1NC(=O)c1ccnn1C", "500 to 1000 nM"),
    ("Cc1c(-c2ncc3nc(C(F)(F)F)ccc3n2)ccc(N(C)C(=O)c2ccnn2C)c1C", "1000 to 10000 nM"),
    ("Cc1cc(-c2ncc3cc(C(F)(F)F)ccc3n2)ccc1N(C)C(=O)c1cnc[nH]1", "200 to 500 nM"),
    ("Cc1cc(-c2ncc3cc(C(F)(F)F)ccc3n2)ccc1N(C)C(=O)c1ccnn1CCO", "< 200 nM"),
    ("Cc1cc(-c2nc3ccc(C(F)(F)F)cc3s2)ccc1NC(=O)c1ccnn1C", "200 to 500 nM"),
    ("Cc1cc(-c2ccc3cc(C(F)(F)F)ccc3n2)ccc1N(C)C(=O)c1ccn[nH]1", "500 to 1000 nM"),
    ("Cc1c(-c2ccc3cc(C(F)(F)F)ccc3n2)ccc(NC(=O)c2ccnn2C)c1F", "1000 to 10000 nM"),
]
